# target-under-test: T1, DFNB31_1, Q9P202
# T1 sequence (Q9P202 135-233, limits assumed, looked up): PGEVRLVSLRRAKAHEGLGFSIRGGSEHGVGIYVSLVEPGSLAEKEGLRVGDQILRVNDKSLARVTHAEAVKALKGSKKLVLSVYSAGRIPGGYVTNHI
# protocol-details: holdup assay
# Set-up: key: below the threshold = too weak to quantify, mostly under pKd 3.1 to 4
# experimental-setup: plain residues with an end cap or a label only (N-terminal biotin on a linker: ado-ado)
assay-metric: pKd

Example entries and their recorded answers appear below.
- binder: "EIPAQSPTCV [FZD10, Q9ULW2]"
  pKd: 3.67
- binder: "NTLNRKTTPV [CACNG8, Q8WXS5]"
  pKd: 3.95
- binder: "QLSFNTDTLC [ABCA2, Q9BZC7]"
  pKd: "below the threshold"
- binder: "QSYPSKHDYV [CLDN18, P56856]"
  pKd: 3.49

Value sought for every listed binder: pKd.
1. LAHVKHKEQI [AQP3, Q92482]
2. LPAVCYDIDI [PTTG2, Q9NZH5]
3. RDPPAEWTRV [PTPN18, Q99952]
4. EDPRVEVTQF [SLC22A9, Q8IVM8]
5. SRSVVESDEL [MYPN, Q86TC9]
6. GIKKITSTAL [RPS6KA3, P51812]
7. EKCGKEFSEF [PRKACA, P17612]
8. TNSRHGETTV [FZD2, Q14332]

[out]
below the threshold
below the threshold
4.17
below the threshold
below the threshold
4.39
below the threshold
3.78

Value sought for every listed binder: pKd.
1. KSRVAFFEEL [NF2, P35240]
2. NVYGIESVKI [GRIA2, P42262]
3. AQRARSPSDV [GPR12, P47775]
4. ILRKSTTTTV [PRR16, Q569H4]
5. AEASVACSLC [PTGIR, P43119]
6. RQKEVRESKC [SCN8A, Q9UQD0]

[out]
[3.64, "below the threshold", "below the threshold", "below the threshold", "below the threshold", 4.1]

Value sought for every listed binder: pKd.
1. DTKNYKQTSV [CRIPT, Q9P021]
2. TRKRSGEAAV [PFKM, P08237]
3. DDASLPVSDV [PLEKHA1, Q9HB21]
4. SVTSERETNI [SLC16A7, O60669]

[out]
4.32
below the threshold
3.75
4.68

Value sought for every listed binder: pKd.
1. DGVNEKVSCV [HTR2A, P28223]
2. VKRNSKETVV [MARCHF3, Q86UD3]
3. MHIQEKGFHV [EPHA6, Q9UF33]
4. TGLWKHETTV [ADGRA3, Q8IWK6]
5. STKRKLASAV [NCF1, P14598]
6. ELSATVTTDC [TRIP6, Q15654]

[out]
1. below the threshold
2. 3.64
3. below the threshold
4. 3.9
5. below the threshold
6. 3.81
